experimental.target: UniProtKB Q72874
pIC50: −log10 of the molar value.
Label scheme for pIC50: lower than 8 is f, 8 and above is t.

In: Please indicate if the recorded pIC50 for CC(C)[C@H](NC(=O)OCc1ccccc1)C(=O)NC(Cc1ccccc1)C(=O)C(F)(F)C(=O)N1CCc2ccccc2C1 (stereo partly drawn) meets or exceeds 8.
Out: f

In: Please indicate if the recorded pIC50 for CC(C)[C@H](NC(=O)OCc1ccccc1)C(=O)NC(Cc1ccc(OCc2ccccc2)cc1)C(=O)C(F)(F)C(=O)N1CCc2ccccc2C1 (stereo partly drawn) meets or exceeds 8.
Out: t

In: Please indicate if the recorded pIC50 for O=C(NC(C(=O)NC(Cc1ccc(OCc2ccccc2)cc1)C(=O)C(F)(F)C(=O)NCc1ccccc1)C1CCCCC1)OCc1ccccc1 (stereo not drawn) meets or exceeds 8.
Out: f

In: Please indicate if the recorded pIC50 for CC(C)[C@H](NS(=O)(=O)Cc1ccccc1)C(=O)NC(Cc1ccc(OCc2ccccc2)cc1)C(=O)C(F)(F)C(=O)NCc1ccccc1 (stereo partly drawn) meets or exceeds 8.
Out: f

* * *

Assign CC50 to each entry below.
System: MT4
method: […]
Assay type: functional
conditions: Homo sapiens

# CC(C)[C@H](NC(=O)OCc1ccccc1)C(=O)NC(Cc1ccc(OCc2ccccc2)cc1)C(=O)C(F)(F)C(=O)N(C)Cc1ccccc1 (some centres not stated) with MT4: CC50 is > 100 µM

# CCN(Cc1ccccc1)C(=O)C(F)(F)C(=O)C(Cc1ccc(OCc2ccccc2)cc1)NC(=O)[C@@H](NC(=O)OCc1ccccc1)C(C)C (some centres not stated) with MT4: CC50 is 10 µM

# CC(C)[C@H](NC(=O)OC(C)(C)C)C(=O)NC(Cc1ccc(OCc2ccccc2)cc1)C(=O)C(F)(F)C(=O)NCc1ccccc1 (some centres not stated) with MT4: CC50 is 10 µM

# CC(C)[C@H](NC(=O)OCc1ccccc1)C(=O)NC(Cc1ccc(OCc2ccccc2)cc1)C(=O)C(F)(F)C(=O)N1CCOCC1 (some centres not stated) with MT4: CC50 is 64 µM

# O=C(NC(C(=O)NC(Cc1ccc(OCc2ccccc2)cc1)C(=O)C(F)(F)C(=O)NCc1ccccc1)C1CCCC1)OCc1ccccc1 (configuration not stated) with MT4: CC50 is > 100 µM

# CC(C)[C@H](NC(=O)CCc1cccnc1)C(=O)NC(Cc1ccc(OCc2ccccc2)cc1)C(=O)C(F)(F)C(=O)NCc1ccccc1 (some centres not stated) with MT4: CC50 is > 100 µM

# O=C(NC(C(=O)NC(Cc1ccc(OCc2ccccc2)cc1)C(=O)C(F)(F)C(=O)NCc1ccccc1)C1CCCCC1)OCc1ccccc1 (configuration not stated) with MT4: CC50 is > 100 µM

# CC(C)C[C@H](NC(=O)OCc1ccccc1)C(=O)NC(Cc1ccc(OCc2ccccc2)cc1)C(=O)C(F)(F)C(=O)NCc1ccccc1 (some centres not stated) with MT4: CC50 is 3.2 µM

# CC(C)[C@H](NC(=O)OCc1ccccc1)C(=O)NC(Cc1ccc(OCc2ccccc2)cc1)C(=O)C(F)(F)C(=O)N1CCc2ccccc2C1 (some centres not stated) with MT4: CC50 is > 100 µM

# CC(C)[C@H](NC(=O)OCc1ccccc1)C(=O)NC(Cc1ccccc1)C(=O)C(F)(F)C(=O)N1CCOCC1 (some centres not stated) with MT4: CC50 is > 100 µM

# CC(C)[C@H](NC(=O)OCc1ccccc1)C(=O)NC(Cc1ccccc1)C(=O)C(F)(F)C(=O)NCc1ccccc1 (some centres not stated) with MT4: CC50 is 23 µM

# CC(C)[C@H](NC(=O)OCc1ccccc1)C(=O)NC(Cc1ccc(OCc2ccccc2)cc1)C(=O)C(F)(F)C(=O)NCc1ccccc1 (some centres not stated) with MT4: CC50 is > 100 µM

Numbers sourced from ChEMBL document CHEMBL1127984.
